# Tgt: F1FO-ATP synthase (FO domain, subunit c ring with subunit a) (Mycobacteroides abscessus, UniProt B1MLV6+B1MLV7)
# Construct: native F1FO-ATP synthase in inverted-membrane vesicles of M. subsp. abscessus R variant; with subunit a (atpB); whole complex α3:β3:γ:ε:b-δ:b’:a:c9
# Experimental protocol: ATP synthesis inhibition in inverted-membrane vesicles (luminescence)
Measurement label: pIC50
// returns pIC50 (minus log10 of molar concentration), number only

Fill in: pIC50 of "COc1cc([C@](O)(CCN(C)C)[C@@H](c2cc3cc(Br)ccc3nc2OC)c2ccnc(OC)c2OC)cc(OC)n1" is ___
8.85
